Please provide measured koff for the entries that follow.
Target: T1, monomeric human CD19 antigen Fc(kih) fusion molecule (human, UniProt P0DOX5 223-449 = IgG part)
T1 construct: also called monomeric CD19-Fc; human CD19-Fc(kih)
Assay: SPR ProteOn XPR36, IgG from HEK supernatant captured via anti-human Fab, monomeric CD19-Fc analyte, 1:1 Langmuir
State the answer as a number, implicitly in s⁻¹.

Query string: Name the recorded koff of the binder listed here: anti-CD19 clone 8B8-5A07 in P329GLALA human IgG1 format (antibody, V domains shown) VH: QVQLVQSGAEVKKPGASVKVSCKASGYTFTDYIMHWVRQAPGQGLEWMGYINPYNDGSKYTEKFQGRVTMTSDTSISTAYMELSRLRSDDTAVYYCARGTYYYGSALFDYWGQGTTVTVSS VL: DIVMTQTPLSLSVTPGQPASISCKSSQSLETSTGNTYLNWYLQKPGQSPQLLIYRVSKRFSGVPDRFSGSGSGTDFTLKISRVEAEDVGVYYCLQPGHYPGTFGQGTKLEIKR
Result string: 3.07e-05

Query string: Name the recorded koff of the binder listed here: anti-CD19 clone 8B8 (parental) in P329GLALA human IgG1 format (antibody, V domains shown, also called Parental 8B8) VH: EVQLQQSGPELVKPGASVKMACKASGYTFTDYIMHWVKQKTGQGLEWIGYINPYNDGSKYTEKFNGKATLTSDKSSITAYMELSSLTSEDSAVYYCARGTYYYGSALFDYWGQGTTLTVSS VL: DAVMTQTPLSLPVSLGDQASISCRSSQSLENSNGNTYLNWYLQKPGQSPQLLIYRVSKRFSGVLDRFSGSGSGTDFTLKISRVEAEDLGVYFCLQLTHVPYTFGGGTKLEIKR
Result string: 0.000134

Query string: Name the recorded koff of the binder listed here: anti-CD19 clone 8B8-5D08 in P329GLALA human IgG1 format (antibody, V domains shown) VH: QVQLVQSGAEVKKPGASVKVSCKASGYTFTDYIMHWVRQAPGQGLEWMGYINPYNDGSKYTEKFQGRVTMTSDTSISTAYMELSRLRSDDTAVYYCARGTYYYGSELFDYWGQGTTVTVSS VL: DIVMTQTPLSLSVTPGQPASISCKSSQSLETSTGNTYLNWYLQKPGQSPQLLIYRVSKRFSGVPDRFSGSGSGTDFTLKISRVEAEDVGVYYCLQLTHEPYTFGQGTKLEIKR
Result string: 8.44e-05
